target or system: Receptor tyrosine-protein kinase erbB-2 (Homo sapiens)
assay protocol: reducers of endogenous Her2 protein level, primary screen, SKBR3 breast tumor cells, AlphaScreen, ATP viability (AID 461);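 further: lower value means less Her2 protein in the cells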
test parameters: 18-24 h, at 10 µM, stronger effect = lower value
The source made the active and inactive calls.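 How the source made its calls: active means Her2 level under about 52% in both replicate screens, with viability over 70% of control (limit read from the data); inconclusive means Her2 under the limit in one screen only, or viability under 70%; inactive means Her2 level above the set limit.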
Documented Her2 level across a set of compounds

compound	target or system	Her2 level
CC(=O)N(C)C1(c2nnnn2CCOC(=O)Nc2cccc3ccccc23)CCCC1	Receptor tyrosine-protein kinase erbB-2 (Homo sapiens)	85.5% (inactive)
CSc1nnc(-c2nnc(SC)n2-c2ccccc2)n1-c1ccccc1	Receptor tyrosine-protein kinase erbB-2 (Homo sapiens)	83.5% (inactive)
COc1cc(OC)cc(C(=O)N2CCN(C(=O)c3ccc(OC)c(OC)c3)CC2)c1	Receptor tyrosine-protein kinase erbB-2 (Homo sapiens)	104% (inactive)
CN1CCC(=C2c3ccccc3CC(=O)c3sccc32)CC1	Receptor tyrosine-protein kinase erbB-2 (Homo sapiens)	87% (inactive)
Cc1cc(C)n2nc(SCc3cc(=O)n4ccccc4n3)nc2n1	Receptor tyrosine-protein kinase erbB-2 (Homo sapiens)	72.5% (inactive)
CCOC(=O)N1CCC(N2C(=O)c3ccc(C(=O)NCc4ccco4)cc3C2=O)CC1	Receptor tyrosine-protein kinase erbB-2 (Homo sapiens)	94% (inactive)
Cc1cccc(-n2c(O)c(C=Nc3ccccc3N)c(=O)[nH]c2=O)c1	Receptor tyrosine-protein kinase erbB-2 (Homo sapiens)	94.5% (inactive)
CCC(C)Nc1nc2c(c(=O)n(C)c(=O)n2C)n1Cc1ccc(F)cc1 (stereo unspecified)	Receptor tyrosine-protein kinase erbB-2 (Homo sapiens)	86.5% (inactive)
CCS(=O)(=O)CCn1c([N+](=O)[O-])cnc1C	Receptor tyrosine-protein kinase erbB-2 (Homo sapiens)	122% (inactive)
CCCn1c2ccccc2c2nnc(SCC(=O)Nc3ncccn3)nc21	Receptor tyrosine-protein kinase erbB-2 (Homo sapiens)	75.5% (inactive)
O=S(=O)(NCCCCCNS(=O)(=O)c1ccccc1)c1ccccc1	Receptor tyrosine-protein kinase erbB-2 (Homo sapiens)	90.5% (inactive)

###

assay protocol: growth suppression of beta-catenin knockout HCT116, pilot screen, human colon tumor cells (AID 823);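 further: 0% = wells killed by 20 µM Hyamine and 100% = untreated DMSO cell wells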
test parameters: CellTiter-Glo, 60 h, at 10 µM, stronger effect = lower value
Inconclusive results are not listed.
Rule: viability below 80% gives YES. Equal to or above 80% gives NO.

compound	group
Cc1ccccc1C(=O)Nc1nnc(-c2ccc(F)cc2)o1	YES
CCCSc1nnc2c(n1)OC(c1cccn1C)N(C(C)=O)c1ccccc1-2 (stereo unspecified)	NO
Cc1ccccc1CSc1nnc(-c2ccco2)n1Cc1ccco1	NO
CCOC(=O)CN1CC23C=CC(O2)C(C(=O)NCc2ccccc2OC)C3C1=O (stereo unspecified)	NO
Fc1ccc(C2CC(c3ccccc3)Nc3ncnn32)cc1 (stereo unspecified)	NO

###

assay protocol: reversal of MRP1-mediated doxorubicin resistance, pilot screen, H69AR cells, doxorubicin co-treatment (AID 601)
test parameters: H69AR cells, CellTiter-Glo, 72 h; compound alone cytotoxicity; at 10 µM

compound	viability, %
CC(C(=O)OCn1nnc2ccccc2c1=O)N1C(=O)c2ccccc2C1=O (stereo unspecified)	86.6
CCN(CC)S(=O)(=O)c1ccc(N2CCCC2)c(C(=O)OCC(=O)/C(C#N)=C(\C)N)c1	82.6
COc1ccc(-c2cn3c(C)c(C(=O)Nc4cc(NC(C)=O)ccc4OC)sc3n2)cc1	20.2
O=C(Nc1ccc2nc(-c3cccs3)[nH]c2c1)c1ccco1	75.2
O=C(CSc1nnc(CNC(=O)c2cccs2)o1)NCCc1ccccc1	101
CCCCN(CCCC)C(=O)CN(C)S(=O)(=O)c1ccc2c(c1)n(C)c(=O)c(=O)n2C	96.1
O=C(Nc1ccc(CN2CCOCC2)cc1)c1cc2ccccc2oc1=O	82.6
OC1C[N+]2(CCCCC2)C1	109
COc1ccccc1-n1c(SCC(N)=O)nnc1-c1ccccc1	87.7
COc1ccc2c(c1)cc(C(=O)O)n2C	98.7
CO[C@@]1(NC(=O)CSCC#N)C(=O)N2C(C(=O)O)=C(CSc3nnnn3C)CS[C@@H]21	95
